The reported measurements were obtained from paper PMC9911399.

TARGET_DESC: T1, RBFOX1 RRM (Homo sapiens, UniProt Q9NWB1 109-208)
T1 sequence: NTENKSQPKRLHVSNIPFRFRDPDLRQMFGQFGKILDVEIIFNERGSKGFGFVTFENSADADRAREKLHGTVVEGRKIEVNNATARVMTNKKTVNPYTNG
ASSAY_NAME: EMSA; HiTS-Eq, 1 nM pool, 10 min; buffer printed only for the single-RNA assays: 10 mM Tris pH 7.5, 150 mM NaCl, 3.4 mM EDTA, 0.001% NP-40, 30 C
CONDITIONS_USED: tags: His6 N-terminal (pET28a); label: 5' 32P
Whole data set: some 16,000 sequences, median “ka relative to ugcaugu” near 0.0091, cut for the highest 2% near 0.032. Shown is part of a subset that was picked to be rich in the highest values.
Kindly state binding signal for each of the entries shown.

{"columns": ["BINDER", "READOUT_KIND", "REPORTED_MEASUREMENT"],
 "data": [
  ["UGGGUCU (DNA:RNA) RNA: GGGAGACCGGAAUUCAGAUUGUCCUGGGUCUUUAAAUCCCGUCGUAGCCACCA DNA 1: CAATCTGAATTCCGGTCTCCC DNA 2: TGGTGGCTACGACGGGATT", "binding signal", "0.0375 KA relative to UGCAUGU"]
]}

// switching to the query binder
// returns reported binding signal for input GUGGGUC (DNA:RNA) RNA: GGGAGACCGGAAUUCAGAUUGUCCGUGGGUCUUAAAUCCCGUCGUAGCCACCA DNA 1: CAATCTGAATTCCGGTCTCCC DNA 2: TGGTGGCTACGACGGGATT
0.0192 KA relative to UGCAUGU
